Hey, just so you know, these numbers are from patent US20250011447A1.

# system.name: T1, human BCMA on the cell membrane surface (H929 and RPMI8226 cells) (human, UniProt Q02223 1-184)
# T1 construct: whole, on cells; also called BCMA antigen on the cell membrane surface; BCMA-expressing cell line H929
# T1 sequence (looked up): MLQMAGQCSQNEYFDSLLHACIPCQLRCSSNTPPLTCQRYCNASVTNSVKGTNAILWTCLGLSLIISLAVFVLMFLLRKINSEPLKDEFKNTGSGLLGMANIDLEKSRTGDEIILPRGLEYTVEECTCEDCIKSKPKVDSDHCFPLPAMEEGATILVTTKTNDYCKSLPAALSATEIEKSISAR
# run.description: flow cytometry on RPMI8226 cells
observed.property: EC50 (µg/mL)
# unit: µg/mL | format: bare number

Data request, read-out EC50, for B10.9 scFv-Fc (Fc fusion, also called mutant B10.9; not shown: Fc (scFv-Fc)) scFv: QVQLQQSGAEVKKPGSSVKVSCKASGGTFSKSAIQWVRQAPGQGLEWMGGVIPIFGTANYAQKFQGRVTITADESTSTAYMELSSLRSEDTAVYYCARGWYLDLWGRGTLVTVSSASTGGSSRSSSSGGGGSGGGGLPVLTQPPSASGTPGQRVTISCSGSSNNIGGYSVNWYQQFPGTAPKLLIYRNNQRPSGVPDRFSGSKSGASASLAISGLQSEDEADYYCAAWDDSEIGWLFGTGTQLTVL
0.0451
